Target: T1, human CTLA-4 (human, UniProt P16410 36-161, limits assumed)
T1 construct: also called HuCTLA-4; human cytotoxic T lymphocyte antigen-4
T1 sequence: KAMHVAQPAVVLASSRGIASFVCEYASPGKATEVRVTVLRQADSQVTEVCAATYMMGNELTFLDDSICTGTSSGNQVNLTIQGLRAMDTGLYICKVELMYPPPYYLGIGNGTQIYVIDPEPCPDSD
Assay: ratio of the IC50 for blocking CD80 to the IC50 for blocking CD86 on CTLA-4
endpoint.name: CD80/CD86 Blocking Ratio
Reply with just the number.

// known answers, use as guide
* MAb A4 (13F10D7) (antibody, V domains shown, also called Murine MAb A4; murine antibody A4) VH: EVQLRQSGPELVKPGTSVKISCKASGYKFTDHFINWVKQNHGKSLEWIGDINPNNGGTNSNQKFEGKATLTVDKSSSTAYMELRSLTSEDSAVYYCARLRREYFYAMDYWGQGTSVTVSS VL: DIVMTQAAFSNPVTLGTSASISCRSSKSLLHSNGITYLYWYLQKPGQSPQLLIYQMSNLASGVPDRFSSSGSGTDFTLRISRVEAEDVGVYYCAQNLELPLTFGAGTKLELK | 2.01
* MAb A1 (16A9E9) (antibody, V domains shown, also called murine antibody A1) VH: DVQLQESGPGLVKPSQSLSLTCSVTGDSITSGYYWNWIRQFPGNKLEWMGYISYDGINNYYPSLENRISITRDTSRNQFFLKLNSVTTEDTATYYCAREVVTPGVEVPAWYFDVWGTGTTVTVSS VL: DIVLTQSPTSLTVSLGQRAIISCKASQSVSFAGTGLMHWYQQKPGQQPKLLIYRASNLEAGVPTRFSGSGSRTDFTLNIHPVEEDDAATYYCQQSREYPWTFGGGTTLEIN | 6.49
* MAb A2 (7G10D3) (antibody, V domains shown, also called murine antibody A2) VH: QIQLVQSGPELKKPGETVKISCKASGYTFTTYGMSWVKQTPGKGLKWMGWINTYSGVPTYADDFKGRFAFSLETSASTAYLQINNLKNEDTATYFCARGRDYYGSSYRLFGVWGTGTTVTVSS VL: DIQMTQTTSSLSASLGDRVTISCRASQDISNYLNWYQQKPDGTVKLLIYYTSILNSGVPSKFSGSGSGTDYSLTISNLEQEDIATYFCQQGNTLPWTFGGGTKLEIK | 7.91

Problem: Quote CD80/CD86 Blocking Ratio reported for MAb A5 (32G4C12) (antibody, V domains shown, also called murine antibody A5) VH: QVQLQQSGPELVRPGASVKLSCKASGYTFTTYDINWVKQRPGQGLEWIGWIYPRDGSIIFNEKFKGKATLTVDTTSSTAYMELHSLTSEDSAVYFCARRGLLGPLDYWGQGTPLTVSS VL: DIVMTQSHKFMSTSVGDRVSITCKASQDVATTVAWYQQKPGQSPKLVIYWASTRHTGVPDRFTGSGSGTDFTLTISNVQSEDLADYFCQQYSSYPTFGVGTKLELK please.
Solution: 2.37

Problem: Input MAb A3 (32G12D2) (antibody, V domains shown, also called murine antibody A3) VH: QVQLQQPGAELVRPGSSVKLSCKASGYTFTSYWMHWVKQRPIQGLEWIGNIDPSDSETHYNQNFKDKATLTVDKSSSTAYLQLSSLTSEDSAVYYCARRYTSSSFDYWGQGTTLTVSS VL: DIQMTQTTSSLSASLGDRVTVSCRASQDIRNYLNWYQQKPDGTVKLLIYFTSKLHSGVPSRFSGSGSGTDYFLAISNLEQEDIATYFCQQGNTLPYTFGGGTKLEIK , output reported CD80/CD86 Blocking Ratio.
Solution: 2.23

The reported numbers originate from patent US20200055937A1.
